Assay: Example 18 cynomolgus monkey PK study (SC and IM)
Type: in vivo, cynomolgus monkeys
Settings: male, cynomolgus monkey, plasma, sc, 20 mg/kg, SC 20 mg/kg equivalent of EFdA; Mean; 0.208 days; read-out: Example 18 plasma concentrations
READOUT TYPE: concentration at 0.208 days (ng/mL)
Kindly provide the numeric value in ng/mL only, without the unit symbol.

Query string: Fill in reported concentration at 0.208 days for this entry: C#C[C@]1(COC(=O)CCCCCCCCC)O[C@@H](n2cnc3c(N)nc(F)nc32)C[C@@H]1OC(=O)CCCCCCCCC
Result string: 4.95

====

Assay: Example 18 cynomolgus monkey PK study (SC and IM)
Format: in vivo, cynomolgus monkeys
Conditions: male, cynomolgus monkey, plasma, intramuscular, 20 mg/kg equivalent of EFdA, IM 20 mg/kg equivalent of EFdA; Mean; 0.208 days; read-out: Example 18 plasma concentrations
READOUT TYPE: concentration at 0.208 days (µg/mL)
Kindly provide the numeric value in µg/mL only, without the unit symbol.

Query string: Fill in reported concentration at 0.208 days for this entry: C#C[C@]1(COC(=O)CCCCCCCCC)O[C@@H](n2cnc3c(N)nc(F)nc32)C[C@@H]1OC(=O)CCCCCCCCC [Example 18]
Result string: 0.0283

====

Assay: Example 18 cynomolgus monkey PK study (SC and IM)
Assay type: in vivo, cynomolgus monkeys
Settings: male, cynomolgus monkey, plasma, intramuscular, 20 mg/kg equivalent of EFdA, IM 20 mg/kg equivalent of EFdA; Monkey 2003; 46 days; read-out: Example 18 plasma concentrations
READOUT TYPE: concentration at 46 days (ng/mL)
Kindly provide the numeric value in ng/mL only, without the unit symbol.

Query string: Fill in reported concentration at 46 days for this entry: C#C[C@]1(COC(=O)CCCCCCCCC)O[C@@H](n2cnc3c(N)nc(F)nc32)C[C@@H]1OC(=O)CCCCCCCCC
Result string: 0.105

====

Test: Example 18 cynomolgus monkey PK study (SC and IM)
Type: in vivo, cynomolgus monkeys
Conditions: male, cynomolgus monkey, plasma, intramuscular, 20 mg/kg equivalent of EFdA, IM 20 mg/kg equivalent of EFdA; Monkey 2002; 29 days; read-out: Example 18 plasma concentrations
READOUT TYPE: concentration at 29 days (ng/mL)
Kindly provide the numeric value in ng/mL only, without the unit symbol.

Query string: Fill in reported concentration at 29 days for this entry: C#C[C@]1(COC(=O)CCCCCCCCC)O[C@@H](n2cnc3c(N)nc(F)nc32)C[C@@H]1OC(=O)CCCCCCCCC
Result string: 0.135

====

Assay: Example 18 cynomolgus monkey PK study (SC and IM)
Assay type: in vivo, cynomolgus monkeys
Conditions: male, cynomolgus monkey, plasma, intramuscular, 20 mg/kg equivalent of EFdA, IM 20 mg/kg equivalent of EFdA; Monkey 2001; 2 days; read-out: Example 18 plasma concentrations
READOUT TYPE: concentration at 2 days (ng/mL)
Kindly provide the numeric value in ng/mL only, without the unit symbol.

Query string: Fill in reported concentration at 2 days for this entry: C#C[C@]1(COC(=O)CCCCCCCCC)O[C@@H](n2cnc3c(N)nc(F)nc32)C[C@@H]1OC(=O)CCCCCCCCC
Result string: 0.652

====

System: HIV pseudotyped virus (NL4-3 provirus, luciferase reporter), WT
Assay: PSV (pseudotyped virus) assay, WT
Settings: Human immunodeficiency virus 1, NL43, 72 h, read-out: WT IC50
Task for the reader: assign each of the following molecules its reported pIC50.
# reply with the number alone; pIC50 is -log10 of concentration in mol/L

Query string: Fill in reported pIC50 for this entry: C#C[C@]1(COC(=O)CCCCCCCCCCCCC(=O)O)O[C@@H](n2cnc3c(N)nc(F)nc32)C[C@@H]1O
Result string: 8.05

Query string: Fill in reported pIC50 for this entry: C#C[C@]1(COC(=O)CNC(=O)CCCCCCCCCCCCC)O[C@@H](n2cnc3c(N)nc(F)nc32)C[C@@H]1O
Result string: 9.00

Query string: Fill in reported pIC50 for this entry: C#C[C@]1(COC(=O)C(CCC)CCC)O[C@@H](n2cnc3c(N)nc(F)nc32)C[C@@H]1OC(=O)CCCCCCCCCCC
Result string: 6.62

Query string: Fill in reported pIC50 for this entry: C#C[C@]1(COC(=O)CCCC)O[C@@H](n2cnc3c(NC(=O)CCC)nc(F)nc32)C[C@@H]1O
Result string: 7.68

Query string: Fill in reported pIC50 for this entry: C#C[C@]1(COC(=O)CCCC(=O)OCCCCCCCCCCCCCC)O[C@@H](n2cnc3c(N)nc(F)nc32)C[C@@H]1O
Result string: 7.48

Query string: Fill in reported pIC50 for this entry: C#C[C@]1(COC(=O)CCCC)O[C@@H](n2cnc3c(NC(=O)CCCCCCCCCCC)nc(F)nc32)C[C@@H]1O
Result string: 8.22

Query string: Fill in reported pIC50 for this entry: C#C[C@]1(COC(=O)COCCOC)O[C@@H](n2cnc3c(N)nc(F)nc32)C[C@@H]1O
Result string: 8.40
